test system: HCT-15 colon; experiment: NCI tumour cell line growth inhibition, 48 h; in the data active = GI50 below about 0.43 µM; inactive = the rest
Respond only with the outcome that fits, drawn from y = active, n = inactive

Prompt: Assay result, entry `O=C1/C=C/[C@@H](O)[C@@H]2C[C@@H](O)C[C@H]2/C=C/CCC[C@H](CCc2cccc3ccccc23)O1` — outcome?
Completion: y

Prompt: Assay result, entry `CCCc1n(Cc2ccc3ccccc3c2)cc[n+]1Cc1ccc2ccccc2c1` — outcome?
Completion: n

Prompt: Assay result, entry `O=C(Nc1ccc(Cc2ccccc2)cc1)Nc1nn(C(=O)Nc2ccc(Cc3ccccc3)cc2)c2ccccc12` — outcome?
Completion: n

Prompt: Assay result, entry `Cc1c(O)c(N=Nc2nc3ccccc3s2)c2ccccc2c1O` — outcome?
Completion: n

Prompt: Assay result, entry `CC(=O)/C(=C/c1ccccc1)C(=O)CC(C)C` — outcome?
Completion: n

Prompt: Assay result, entry CN(CCCCCl)P(=O)(OCCS(=O)(=O)CC(NC(=O)CCC(N)C(=O)O)C(=O)NC(C(=O)O)c1ccccc1)OCC1OC(n2ccc(N)nc2=O)C(O)C1O (stereo not drawn) — outcome?
Completion: n

Prompt: Assay result, entry `N.N.N.N.N.NC(=O)[O-].[Co+3].[I-]` — outcome?
Completion: n

Prompt: Assay result, entry `Cc1ccc2oc(=O)cc(/C(=C3/C=CC=N3)c3ccc[nH]3)c2c1` — outcome?
Completion: y

Prompt: Assay result, entry `O=c1oc2ccc(I)cc2c(=O)n1-c1ccc(F)cc1F` — outcome?
Completion: n

Prompt: Assay result, entry `COC(=O)c1ccc2c(c1)C(=O)c1c-2n(CCCCl)c(=O)c2cc([N+](=O)[O-])ccc12` — outcome?
Completion: n

Prompt: Assay result, entry `CCC[CH2][Sn]([CH2]CCC)([O]c1cccc2cccnc12)[O]c1cccc2cccnc12` — outcome?
Completion: y

Prompt: Assay result, entry `O=C(CCl)NCCNc1nccc(Nc2ccc(S(=O)(=O)Nc3ccccn3)cc2)n1` — outcome?
Completion: n

Prompt: Assay result, entry `CC(=O)O[C@H]([C@H](OC(C)=O)[C@H](C)OC(C)=O)[C@@H](/C=C/[C@@H]1CC=CC(=O)O1)OC(C)=O` — outcome?
Completion: n

Prompt: Assay result, entry `Oc1ccc(Nc2ccc3ccccc3c2)cc1` — outcome?
Completion: n

Prompt: Assay result, entry `COc1ccc2c3c(Nc4cccc(/C(C)=N\O)c4)[nH]c4ccccc4c-3c(N=O)c2c1` — outcome?
Completion: n

Prompt: Assay result, entry `CCCCCCCCCCCCCCCC1=NCCN1` — outcome?
Completion: n

Prompt: Assay result, entry `O=S(=O)([O-])c1ccc(N=Cc2ccccc2[O-])cc1.O=S(=O)([O-])c1ccc(N=Cc2ccccc2[O-])cc1.[Co+2]` — outcome?
Completion: n

Prompt: Assay result, entry `COc1cc(C(=O)O[C@H](C(=O)NCCCNC(=O)[C@@H](OC(=O)c2cc(OC)cc3c(C)cccc23)[C@]2(C)CO2)[C@]2(C)CO2)c2cccc(C)c2c1` — outcome?
Completion: y
